These data points were gathered from ChEMBL document CHEMBL5625217.

experimental.protocol: Binding affinity to human CES2A assessed as inhibition constant using fluorescein diacetate as fluorescent substrate preincubated for 3 mins followed by substrate addition and measured after 30 mins by Lineweaver-Burk plot analysis
quantity.name: Ki (nM)
One number for each entry, in nM.

[in] Quick one: Ki of CCCCCCC(=O)c1c(C)ccc2oc(-c3cc(OC)ccc3O)cc12 ?
[out] 1.4

----------
experimental.protocol: Inhibition of intracellular CES2A in human HepG2 cells assessed as reduction in NCEN hydrolysis incubated for 1 hr
Type: cell-based
setup.conditions: Homo sapiens, HepG2, 1 h; read-out: IC50
quantity.name: IC50 (nM)
One number for each entry, in nM.

[in] Quick one: IC50 of CCCCCCC(=O)c1c(C)ccc2oc(-c3cc(OC)ccc3O)cc12 ?
[out] 52

----------
Field: IC50. Provide a value for each of the compounds that follow.
experimental.protocol: Inhibition of human CES1A using NLMe as substrate preincubated for 3 mins followed by substrate addition and measured after 20 mins by Spectra max microplate reader analysis
One number for each entry, in µM.

- CCCCCCC(=O)c1c(C)ccc2oc(-c3cc(OC)ccc3O)cc12: 7.26

From here, focus on the item given below.
[in] Quick one: IC50 of CCCCCCCCC(=O)c1cccc2oc(-c3cc(OC)ccc3O)cc12 ?
[out] 2.61
